List of % (radioactivity relative to Bz-β-GlcNAc set to 100%) values.
Target: mouse G34 (Mus musculus)
Construct: made in house; host or cells: 293T cells transfected with pFLAG-CMV3-mG34A; purified from the supernatant
Sequence (Q8BG28 35-504): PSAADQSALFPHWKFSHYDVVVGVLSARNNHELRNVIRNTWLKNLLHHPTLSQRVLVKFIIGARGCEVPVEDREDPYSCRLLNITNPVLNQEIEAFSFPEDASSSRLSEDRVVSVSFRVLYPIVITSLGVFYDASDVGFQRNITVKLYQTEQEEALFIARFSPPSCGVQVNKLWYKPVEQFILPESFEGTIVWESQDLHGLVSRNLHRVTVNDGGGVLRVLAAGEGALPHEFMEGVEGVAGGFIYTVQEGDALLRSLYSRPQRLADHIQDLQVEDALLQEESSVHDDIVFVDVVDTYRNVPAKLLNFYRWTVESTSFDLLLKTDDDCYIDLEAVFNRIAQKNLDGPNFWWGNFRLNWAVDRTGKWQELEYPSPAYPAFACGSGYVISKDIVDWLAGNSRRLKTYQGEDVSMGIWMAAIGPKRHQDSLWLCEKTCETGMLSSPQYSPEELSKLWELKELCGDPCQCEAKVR
Experiment: Substrate specificity of β1,3-N-acetylgalactosamine transferase activity of mouse G34
Type: biochemical
Conditions: 10 nmol substrate, HEPES pH 7.4, MnCl2 10 mM, 37° C. 16 hours
# value in %; strip the unit string

Below, 4 molecules whose answers are already recorded.
Molecule: CC(=O)N[C@H]1[C@H](OCc2ccccc2)O[C@H](CO)[C@@H](O)[C@@H]1O
Study system: mouse G34 (Mus musculus)
Units symbol: %
Measured number: 100
--
Molecule: CC(=O)N[C@H]1[C@H](OC[C@H]2O[C@H](Oc3ccc([N+](=O)[O-])cc3)[C@H](NC(C)=O)[C@@H](O[C@@H]3O[C@H](CO)[C@H](O)[C@H](O)[C@H]3O)[C@H]2O)O[C@H](CO)[C@@H](O)[C@@H]1O
Study system: mouse G34 (Mus musculus)
Units symbol: %
Measured number: 25
--
Molecule: CC(=O)NC1C(OC2C(O)C(CO)OC(Oc3ccc([N+](=O)[O-])cc3)C2NC(C)=O)OC(CO)C(O)C1O (stereo not drawn)
Study system: mouse G34 (Mus musculus)
Units symbol: %
Measured number: 14
--
Molecule: CC(=O)N[C@H]1[C@H](OCc2ccccc2)O[C@H](CO)[C@@H](O[C@@H]2O[C@H](CO)[C@@H](O)[C@H](O)[C@H]2NC(C)=O)[C@@H]1O
Study system: mouse G34 (Mus musculus)
Units symbol: %
Measured number: 10

-- ask Write down measured % (radioactivity relative to Bz-β-GlcNAc set to 100%) (mouse G34 (Mus musculus)) for this molecule. `O=[N+]([O-])c1ccc(O[C@@H]2O[C@H](CO)[C@@H](O)[C@H](O)[C@H]2O)cc1`
-- reply 12

-- ask Tell me its % (radioactivity relative to Bz-β-GlcNAc set to 100%) on mouse G34 (Mus musculus): `CC(=O)N[C@H]1[C@@H](Oc2ccc([N+](=O)[O-])cc2)O[C@H](CO[C@@H]2O[C@H](CO)[C@@H](O)[C@H](O)[C@H]2NC(C)=O)[C@H](O)[C@@H]1O`
-- reply 18
